The reader will find reported CD28 scFv signal values listed item by item below.
system_name: Anti-CD28 scFv (VH - linker 1 - VL) (biotinylated (site not given))
Sequence (scFv, as listed by the source): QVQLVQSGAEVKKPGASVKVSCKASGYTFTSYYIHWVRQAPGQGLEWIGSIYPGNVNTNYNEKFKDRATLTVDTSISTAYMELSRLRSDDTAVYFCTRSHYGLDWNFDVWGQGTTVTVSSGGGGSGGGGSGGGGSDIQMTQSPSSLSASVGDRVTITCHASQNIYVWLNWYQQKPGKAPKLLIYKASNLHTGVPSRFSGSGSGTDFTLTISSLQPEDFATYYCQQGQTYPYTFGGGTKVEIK
protocol_text: phage binding ELISA; biotinylated anti-CD28 scFv on neutravidin plate, bound phage detected with anti-M13-HRP
Where no end group is shown, it is not given here.
assay_metric: CD28 scFv signal

| binder | recorded_value |
| --- | --- |
| WVSCLRHHWLECFH (cysteine pairing not given here; also: displayed on phage as fusion to pIII, fusion limits and linker not given here, Clonal phage of the Peptide-9 library, tested as crude phage supernatant; not shown: pIII of the bacteriophage) [Phage-274] | 0.723 |
| MDWCPFDLWHVCYN (cysteine pairing not given here; also: fused to phage pIII, linker and fusion site not given here, Clonal phage of the Peptide-9 library, tested as crude phage supernatant; not shown: pIII of the bacteriophage) [Phage-256] | 2.6 |
| MDWCPRYLWAECFN (cysteine pairing not given here; also: displayed on phage as fusion to pIII, fusion limits and linker not given here, Clonal phage of the Peptide-9 library, tested as crude phage supernatant; not shown: pIII of the bacteriophage) [Phage-279] | 2.74 |
| MDWCPRHMWINCFA (cysteine pairing not given here; also: fused to phage pIII, linker and fusion site not given here, Clonal phage of the Peptide-9 library, tested as crude phage supernatant; not shown: pIII of the bacteriophage) [Phage-252] | 0.92 |
| MDWCPRNLWHACFN (cysteine pairing not given here; also: fused to phage pIII, linker and fusion site not given here, Clonal phage of the Peptide-9 library, tested as crude phage supernatant; not shown: pIII of the bacteriophage) [Phage-259] | 1.57 |
| VTSCPTTMWNRCFS (cysteine pairing not given here; also: displayed on bacteriophage as fusion to pIII, fusion limits and linker not given here, Clonal phage of the Peptide-9 library, tested as crude phage supernatant; not shown: pIII of the bacteriophage) [Phage-266] | 1.22 |
| MDWCPMFMWHECFN (cysteine pairing not given here; also: displayed on phage as pIII fusion, fusion limits and linker not given here, Clonal phage of the Peptide-9 library, tested as crude phage supernatant; not shown: pIII of the bacteriophage) [Phage-261] | 2.23 |
| MVGCATSMWNRCLT (cysteine pairing not given here; also: fused to phage pIII, linker and fusion site not given here, Clonal phage of the Peptide-9 library, tested as crude phage supernatant; not shown: pIII of the bacteriophage) [Phage-253] | 0.77 |
| MTLCLSVDLVHCWY (cysteine pairing not given here; also: displayed on bacteriophage as fusion to pIII, fusion limits and linker not given here, Clonal phage of the Peptide-9 library, tested as crude phage supernatant; not shown: pIII of the bacteriophage) [Phage-267] | 0.632 |
| MDWCPRYLWSECFA (cysteine pairing not given here; also: fused to phage pIII, linker and fusion site not given here, Clonal phage of the Peptide-9 library, tested as crude phage supernatant; not shown: pIII of the bacteriophage) [Phage-254] | 2.71 |
